assay-target: CYP3A4/5 (Homo sapiens, UniProt P08684+P20815)
assay-explanation: Time dependent inhibition of CYP3A4/5 (unknown origin) in presence of NADPH
Assay type: ADME, protein assay

- compound: "CN1CCC2(CCC(n3c(C(F)(F)F)cn4nc(Nc5ccnc(N6CC[C@@H](O)[C@@H](F)C6)n5)cc34)CC2)C1=O (stereo partly drawn)"
  comparison-sign: ">"
  IC50, µM: 1.4
- compound: "O[C@@H]1CCN(c2nccc(Nc3cc4n(C5CCC6(CC5)OCCO6)c(C(F)(F)F)cn4n3)n2)C[C@@H]1F"
  comparison-sign: "="
  IC50, µM: 2.3
- compound: "CO[C@@H]1CCN(c2nccc(Nc3cc4n(C5CCC6(CC5)OCCO6)c(C)cn4n3)n2)C[C@@H]1F"
  comparison-sign: "="
  IC50, µM: 156

* * *

assay-target: CYP3A4/5 (Homo sapiens, UniProt P08684+P20815)
assay-explanation: Time dependent inhibition of CYP3A4/5 (unknown origin) at 30 uM measured after 10 mins relative to control
Assay type: ADME, protein assay
assay-setup: read-out: TDI

- compound: "CO[C@@H]1CCN(c2nccc(Nc3cc4n(C5CCC6(CC5)OCCO6)c(C)cn4n3)n2)C[C@@H]1F"
  inhibition at 10 min, 30 µM [%]: 41.2

* * *

Parameter logD at 3 h: see the listing below.
assay-explanation: physchem
assay-setup: octanol/water

- compound: "Cc1cn2nc(Nc3ccnc(N4CC[C@@H](O)[C@@H](F)C4)n3)cc2n1C1C2CCCC1C2 (some centres undefined)"
  logD at 3 h: 3.32
- compound: "COC1CCN(c2nccc(Nc3cc4n(C5CC5)c(C)cn4n3)n2)CC1"
  logD at 3 h: 3.37
- compound: "COC1CCN(c2nccc(Nc3cc4n(C)c(C)cn4n3)n2)CC1"
  logD at 3 h: 2.56
- compound: "COC1CCN(c2nccc(Nc3cc4n(C5CCC(=O)CC5)c(C)cn4n3)n2)CC1"
  logD at 3 h: 2.27

* * *

assay-target: CYP3A4/5 (Homo sapiens, UniProt P08684+P20815)
assay-explanation: Time dependent inhibition of CYP3A4/5 (unknown origin) assessed as remaining activity at 30 uM relative to control
Assay type: protein assay
assay-setup: read-out: Activity

- compound: "CO[C@@H]1CCN(c2nccc(Nc3cc4n(C5CCC6(CC5)OCCO6)c(C(=O)NCC5CCN(C)CC5)cn4n3)n2)C[C@@H]1F"
  comparison-sign: ">"
  activity at 30 µM (%): 99
- compound: "O[C@@H]1CCN(c2nccc(Nc3cc4n(C5CCC6(CC5)OCCO6)c(C(F)(F)F)cn4n3)n2)C[C@@H]1F"
  comparison-sign: "="
  activity at 30 µM (%): 25
- compound: "CCc1cn2nc(Nc3ccnc(N4CC[C@@H](OC)[C@@H](F)C4)n3)cc2n1[C@H]1CC[C@]2(CCN(C)C2=O)CC1"
  comparison-sign: "="
  activity at 30 µM (%): 65
- compound: "CO[C@@H]1CCN(c2nccc(Nc3cc4n(C5CCC6(CC5)OCCO6)c(C)cn4n3)n2)C[C@@H]1F"
  comparison-sign: "="
  activity at 30 µM (%): 57

* * *

assay-target: CYP3A4/5 (Homo sapiens, UniProt P08684+P20815)
assay-explanation: Time dependent inhibition of CYP3A4/5 (unknown origin) assessed as remaining activity at 30 uM relative to control
Format: protein assay
assay-setup: read-out: Activity
Parameter activity at 30 µM: see the listing below.

- compound: "CCNC(=O)c1cn2nc(Nc3ccnc(N4CC[C@@H](OC)[C@@H](F)C4)n3)cc2n1C1CCC2(CC1)OCCO2"
  comparison-sign: "="
  activity at 30 µM / %: 98
- compound: "CO[C@@H]1CCN(c2nccc(Nc3cc4n(C5CCC6(CC5)OCCO6)c(C(=O)NCC5CN(C)C5)cn4n3)n2)C[C@@H]1F"
  comparison-sign: ">"
  activity at 30 µM / %: 99
- compound: "CN1CCC2(CCC(n3c(C(F)(F)F)cn4nc(Nc5ccnc(N6CC[C@@H](O)[C@@H](F)C6)n5)cc34)CC2)C1=O (stereo not given in full)"
  comparison-sign: "="
  activity at 30 µM / %: 86
- compound: "CCc1cn2nc(Nc3ccnc(N4CC[C@@H](OC)[C@@H](F)C4)n3)cc2n1C1CCC2(CC1)OCCO2"
  comparison-sign: "="
  activity at 30 µM / %: 39
- compound: "CO[C@@H]1CCN(c2nccc(Nc3cc4n(C5CCC6(CC5)OCCO6)c(C#N)cn4n3)n2)C[C@@H]1F"
  comparison-sign: "="
  activity at 30 µM / %: 78

* * *

assay-target: Epidermal growth factor receptor (Homo sapiens, UniProt P00533, C797S/L858R/T790M)
Sequence (P00533 25-1210 T790M/C797S/L858R limits assumed): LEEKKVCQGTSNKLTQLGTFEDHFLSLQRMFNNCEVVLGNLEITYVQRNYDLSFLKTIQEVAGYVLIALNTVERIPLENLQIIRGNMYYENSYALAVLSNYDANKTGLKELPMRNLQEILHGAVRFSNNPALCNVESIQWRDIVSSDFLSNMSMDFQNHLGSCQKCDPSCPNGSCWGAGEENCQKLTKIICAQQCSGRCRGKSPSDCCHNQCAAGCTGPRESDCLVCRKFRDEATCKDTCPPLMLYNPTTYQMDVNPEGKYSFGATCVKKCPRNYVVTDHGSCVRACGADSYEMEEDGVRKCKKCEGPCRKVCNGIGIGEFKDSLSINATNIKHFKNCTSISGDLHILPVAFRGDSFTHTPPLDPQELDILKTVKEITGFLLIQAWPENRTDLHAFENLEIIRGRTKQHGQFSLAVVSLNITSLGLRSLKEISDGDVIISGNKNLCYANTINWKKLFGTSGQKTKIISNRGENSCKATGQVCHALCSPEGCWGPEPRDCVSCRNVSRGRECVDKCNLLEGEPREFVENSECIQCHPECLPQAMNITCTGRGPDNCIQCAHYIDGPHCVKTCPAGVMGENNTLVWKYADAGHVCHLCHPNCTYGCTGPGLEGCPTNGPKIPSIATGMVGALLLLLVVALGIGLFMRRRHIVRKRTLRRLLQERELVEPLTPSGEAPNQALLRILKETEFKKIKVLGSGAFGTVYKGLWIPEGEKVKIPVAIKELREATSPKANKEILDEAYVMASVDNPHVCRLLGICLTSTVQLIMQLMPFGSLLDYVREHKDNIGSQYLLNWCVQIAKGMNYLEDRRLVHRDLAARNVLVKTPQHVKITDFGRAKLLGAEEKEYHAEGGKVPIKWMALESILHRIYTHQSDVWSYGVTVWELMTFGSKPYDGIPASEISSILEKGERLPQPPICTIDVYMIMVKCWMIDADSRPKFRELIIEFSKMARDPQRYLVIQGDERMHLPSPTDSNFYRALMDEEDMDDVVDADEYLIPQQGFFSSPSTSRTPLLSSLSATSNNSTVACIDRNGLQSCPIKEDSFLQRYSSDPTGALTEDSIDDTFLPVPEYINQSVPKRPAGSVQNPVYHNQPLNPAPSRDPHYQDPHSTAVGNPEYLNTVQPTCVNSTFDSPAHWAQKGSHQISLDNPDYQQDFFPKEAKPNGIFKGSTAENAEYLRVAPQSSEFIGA
assay-explanation: Binding affinity to EGFR L858R/T790M/C797S mutant (unknown origin) assessed as inhibition constant incubated for 30 mins in presence of ATP by Real-time fluorescence based analysis
Parameter Ki: see the listing below.

- compound: "COC1CCN(c2nccc(Nc3cc4n(C)c(C)cn4n3)n2)CC1"
  measurement-units: "nM"
  Ki: 6100
- compound: "Cc1cn2nc(Nc3ccnc(N4CC[C@@H](O)[C@@H](F)C4)n3)cc2n1C1C2CCCC1C2 (some centres undefined)"
  measurement-units: "nM"
  Ki: 9.9
- compound: "COC1CCN(c2nccc(Nc3cc4n(C5CCC(=O)CC5)c(C)cn4n3)n2)CC1"
  measurement-units: "nM"
  Ki: 27
- compound: "COC1CCN(c2nccc(Nc3cc4n(C5CC5)c(C)cn4n3)n2)CC1"
  measurement-units: "nM"
  Ki: 950

* * *

assay-target: CYP3A4/5 (Homo sapiens, UniProt P08684+P20815)
assay-explanation: Time dependent inhibition of CYP3A4/5 (unknown origin) at 30 uM measured after 30 mins relative to control
Assay type: protein assay
assay-setup: read-out: TDI

- compound: "CO[C@@H]1CCN(c2nccc(Nc3cc4n(C5CCC6(CC5)OCCO6)c(C#N)cn4n3)n2)C[C@@H]1F"
  inhibition at 0.5 h, 30 µM, %: 50
- compound: "CCc1cn2nc(Nc3ccnc(N4CC[C@@H](OC)[C@@H](F)C4)n3)cc2n1[C@H]1CC[C@]2(CCN(C)C2=O)CC1"
  inhibition at 0.5 h, 30 µM, %: 55.8
- compound: "CCNC(=O)c1cn2nc(Nc3ccnc(N4CC[C@@H](OC)[C@@H](F)C4)n3)cc2n1C1CCC2(CC1)OCCO2"
  inhibition at 0.5 h, 30 µM, %: 64
- compound: "CO[C@@H]1CCN(c2nccc(Nc3cc4n(C5CCC6(CC5)OCCO6)c(C(=O)NCC5CCN(C)CC5)cn4n3)n2)C[C@@H]1F"
  inhibition at 0.5 h, 30 µM, %: 24
- compound: "CCc1cn2nc(Nc3ccnc(N4CC[C@@H](OC)[C@@H](F)C4)n3)cc2n1C1CCC2(CC1)OCCO2"
  inhibition at 0.5 h, 30 µM, %: 34.9

* * *

assay-target: CYP3A4/5 (Homo sapiens, UniProt P08684+P20815)
assay-explanation: Time dependent inhibition of CYP3A4/5 (unknown origin) at 30 uM measured after 30 mins relative to control
Format: protein assay
assay-setup: read-out: TDI

- molecule: "O[C@@H]1CCN(c2nccc(Nc3cc4n(C5CCC6(CC5)OCCO6)c(C(F)(F)F)cn4n3)n2)C[C@@H]1F"
  measurement-units: "%"
  inhibition at 0.5 h, 30 µM: 8.3
- molecule: "CO[C@@H]1CCN(c2nccc(Nc3cc4n(C5CCC6(CC5)OCCO6)c(C(=O)NCC5CN(C)C5)cn4n3)n2)C[C@@H]1F"
  measurement-units: "%"
  inhibition at 0.5 h, 30 µM: 26
- molecule: "CO[C@@H]1CCN(c2nccc(Nc3cc4n(C5CCC6(CC5)OCCO6)c(C)cn4n3)n2)C[C@@H]1F"
  measurement-units: "%"
  inhibition at 0.5 h, 30 µM: 52.4
- molecule: "CN1CCC2(CCC(n3c(C(F)(F)F)cn4nc(Nc5ccnc(N6CC[C@@H](O)[C@@H](F)C6)n5)cc34)CC2)C1=O (some centres undefined)"
  measurement-units: "%"
  inhibition at 0.5 h, 30 µM: 34

* * *

Parameter pIC50: see the listing below.
assay-target: CYP3A4/5 (Homo sapiens, UniProt P08684+P20815)
assay-explanation: Time dependent inhibition of CYP3A4/5 (unknown origin) in absence of NADPH
Type: ADME, protein assay
pIC50: −log10 of the molar value.
measurement-name: pIC50

- compound: "CN1CCC2(CCC(n3c(C(F)(F)F)cn4nc(Nc5ccnc(N6CC[C@@H](O)[C@@H](F)C6)n5)cc34)CC2)C1=O (stereo partly drawn)"
  measurement-name: "pIC50"
  assay-value: 4.66
- compound: "CO[C@@H]1CCN(c2nccc(Nc3cc4n(C5CCC6(CC5)OCCO6)c(C)cn4n3)n2)C[C@@H]1F"
  measurement-name: "pIC50"
  assay-value: 6.09
- compound: "O[C@@H]1CCN(c2nccc(Nc3cc4n(C5CCC6(CC5)OCCO6)c(C(F)(F)F)cn4n3)n2)C[C@@H]1F"
  measurement-name: "pIC50"
  assay-value: 5.24
